Tested on: B-16 melanoma cells
RUN DESCRIPTION: Tests for tumor cell-proliferation-inhibitory effect and tumor cell-extinction (cell growth rate from viable cell count)
Type: cell-based
PROTOCOL CONDITIONS: Mus musculus, B16, 144 h, 50 ppm, viable cell count vs control on 6th day
READOUT KIND: activity at 50 ppm (%)
Quick reminder: number only, in %, skip the unit.

Examples from the recorded data:
{"COMPOUND": "C=C(C)[C@@H]1CC[C@]2(C)CC[C@]3(C)[C@H](CC[C@@H]4[C@@]5(C)CC[C@H](O)C(C)(C)[C@@H]5CC[C@]43C)[C@@H]12 [Lupeol, lupeol, reference compound]", "UNIT NAME": "%", "activity at 50 ppm": 100}
{"COMPOUND": "CC1(C)CC[C@]2(C(=O)O)CC[C@]3(C)C(=CC[C@@H]4[C@@]5(C)CC[C@H](O)C(C)(C)[C@@H]5CC[C@]43C)[C@@H]2C1 [Oleanolic acid, oleanolic acid, reference compound]", "UNIT NAME": "%", "activity at 50 ppm": 94}
{"COMPOUND": "CC1(C)CC[C@]2(CO)CC[C@]3(C)C(=CC[C@@H]4[C@@]5(C)CC[C@H](O)C(C)(C)[C@@H]5CC[C@]43C)[C@@H]2C1 [Erythrodiol]", "UNIT NAME": "%", "activity at 50 ppm": 43}
{"COMPOUND": "C[C@H]1[C@H](C)CC[C@]2(CO)CC[C@]3(C)C(=CC[C@@H]4[C@@]5(C)CC[C@H](O)C(C)(C)[C@@H]5CC[C@]43C)[C@H]12 [Uvaol]", "UNIT NAME": "%", "activity at 50 ppm": 30}
{"COMPOUND": "C=C(C)[C@@H]1CC[C@]2(CO)CC[C@]3(C)[C@H](CC[C@@H]4[C@@]5(C)CC[C@H](O)C(C)(C)[C@@H]5CC[C@]43C)[C@@H]12 [Betulin]", "UNIT NAME": "%", "activity at 50 ppm": 63}
{"COMPOUND": "C[C@H]1[C@H](C)CC[C@]2(C(=O)O)CC[C@]3(C)C(=CC[C@@H]4[C@@]5(C)CC[C@H](O)C(C)(C)[C@@H]5CC[C@]43C)[C@H]12 [Ursolic acid]", "UNIT NAME": "%", "activity at 50 ppm": 0}

Pending compound:
**Query** Annotate the compound C=C(C)[C@@H]1CC[C@]2(C(=O)O)CC[C@]3(C)[C@H](CC[C@@H]4[C@@]5(C)CC[C@H](O)C(C)(C)[C@@H]5CC[C@]43C)[C@@H]12 [Betulinic acid] with its measured activity at 50 ppm.
**Result** 38

----------
// Cell Growth Rate lookup, one value per entry
Tested on: B-16 melanoma cells
RUN DESCRIPTION: Tests for tumor cell-proliferation-inhibitory effect and tumor cell-extinction (cell growth rate from viable cell count)
Assay type: cell-based
PROTOCOL CONDITIONS: 20 ppm, viable cell count vs control on 6th day
Quick reminder: number only, in %, skip the unit.

Examples from the recorded data:
{"COMPOUND": "CC(=O)OCC12CCC(C)(C)CC1C1=CCC3C4(C)CCC(OC(C)=O)C(C)(C)C4CCC3(C)C1(C)CC2 (stereo not drawn) [Comp. Of Synthetic Ex. 5, 3,28-O-di-acetyl-erythrodiol]", "ASSAY SYSTEM": "B-16 melanoma cells", "READOUT KIND": "Cell Growth Rate", "REPORTED": 0}
{"COMPOUND": "CC1(C)CC[C@]2(C(=O)O)CC[C@]3(C)C(=CC[C@@H]4[C@@]5(C)C[C@@H](O)[C@H](O)C(C)(C)[C@@H]5CC[C@]43C)[C@@H]2C1", "ASSAY SYSTEM": "B-16 melanoma cells", "READOUT KIND": "Cell Growth Rate", "REPORTED": 0}

**Query** Annotate the compound CC(=O)O[C@@H]1C[C@]2(C)[C@H]3CC=C4[C@@H]5CC(C)(C)CC[C@]5(C(=O)O)CC[C@@]4(C)[C@]3(C)CC[C@H]2C(C)(C)[C@H]1OC(C)=O [Comp. Of Synthetic Ex. 2, 2,3-O-di-acetyl-maslinic acid] with its measured Cell Growth Rate.
**Result** 4

----------
Tested on: B-16 melanoma cells
RUN DESCRIPTION: Tests for tumor cell-proliferation-inhibitory effect and tumor cell-extinction (cell growth rate from viable cell count)
Format: cell-based
PROTOCOL CONDITIONS: 20 ppm, viable cell count vs control on 6th day
// Cell Growth Rate lookup, one value per entry
Write the numeric value and follow it with the unit.

Examples from the recorded data:
{"MOLECULE": "CCOC(=O)[C@]12CCC(C)(C)C[C@H]1C1=CC[C@@H]3[C@@]4(C)C[C@@H](O)[C@H](O)C(C)(C)[C@@H]4CC[C@@]3(C)[C@]1(C)CC2 [Comp. Of Synthetic Ex. 1, maslinic acid ethyl ester]", "Cell Growth Rate": "0%"}
{"MOLECULE": "C[C@H]1[C@H](C)CC[C@]2(C)CC[C@]3(C)C(=CC[C@@H]4[C@@]5(C)CC[C@H](O)C(C)(C)[C@@H]5CC[C@]43C)[C@H]12 [α-Amyrin, α-amyrin, reference compound]", "Cell Growth Rate": "100%"}

Pending molecule:
**Query** Please report Cell Growth Rate with B-16 melanoma cells for item CC1(C)CC[C@]2(C)CC[C@]3(C)C(=CC[C@@H]4[C@@]5(C)CC[C@H](O)C(C)(C)[C@@H]5CC[C@]43C)[C@@H]2C1 [β-Amyrin, β-amyrin, reference compound] .
**Result** 100%
